Origin of measurements: paper PMC11767451

%-ACC (percent mean accuracy vs nominal) values for the molecules below.
# Assay Info: Stability in mouse plasma (accelerated, freeze-thaw, frozen PK samples)
# Format: in vitro ADME
# Experimental Conditions: mouse plasma, 4 hours 4°C
# Method: For stability testing, QC samples were prepared by spiking plasma with QC stock solutions. […] Freeze–thaw cycle stability was assessed by storing the stability samples overnight in the freezer (<−70 °C) and thawing them the next day on the bench. […] Method development and validation was conducted following applicable FDA guidelines for bioanalytical assays, as considered fit for purpose. […] Intra-day imprecision and accuracy were determined with n = 6 per QC level. […]
Endpoint Label: %-ACC (percent mean accuracy vs nominal) (%)

> print(dat)
                                   molecule  observed.result
1  O=c1ccn([C@@H]2O[C@H](COP(=O)(O)O)[C@@H](O)C2(F)F)c(=O)[nH]1             83.0
2  O=c1ccn([C@@H]2O[C@H](CO)[C@@H](O)C2(F)F)c(=O)[nH]1             84.5
3  Nc1ccn([C@@H]2O[C@H](CO)[C@@H](O)C2(F)F)c(=O)n1             94.5
4  Nc1ccn([C@@H]2O[C@H](COP(=O)(O)O)[C@@H](O)C2(F)F)c(=O)n1 [GEMMP, gemcitabine-5′-phosphate]             91.9
